Recorded pEC50 values for a group of binders are listed next.
tested.target: T1, cCD38-his (SEQ ID NO: 4) (cynomolgus monkey, UniProt Q5VAN0 46-301)
T1 construct: His-tagged soluble protein; also called cyno CD38-histag; cynoCD38::Histag
experimental.protocol: ELISA (column ELISA EC50 nM, cyno)
Note: pEC50 values are expressed as the negative base-10 logarithm of concentration in M.

Field: example entries. Status: answers known.
{"columns": ["binder", "pEC50"],
 "data": [
  ["mAb4 (antibody, human IgG1, kappa, V domains shown, also called antiCD38_C2-CD38-1_VH5-VL3) VH: QVQLVQSGAEVVKSGASVKVSCKASGYTFTSFNMHWVKEAPGQGLEWIGYIYPGNGGTNYNQKFQGRATLTADTSASTAYMEISSLRSEDTAVYFCARTGGLRRAYFTYWGQGTLVTVSS VL: DIVLTQSPATLSLSPGERATISCRASESVDSYGNGFMHWYQQKPGQPPRLLIYLASSRATGIPARFSGSGSGTDFTLTISPLEPEDFAVYYCQQNKEDPWTFGGGTKLEIKR", 9.77],
  ["mAb5 (antibody, human IgG1, kappa, V domains shown, also called antiCD38_C2-CD38-1_VH6-VL3) VH: QVQLVQSGAEVVKPGASVKMSCKASGYTFTSFNMHWVKEAPGQRLEWIGYIYPGNGGTNYNQKFQGRATLTADTSASTAYMEISSLRSEDTAVYFCARTGGLRRAYFTYWGQGTLVTVSS VL: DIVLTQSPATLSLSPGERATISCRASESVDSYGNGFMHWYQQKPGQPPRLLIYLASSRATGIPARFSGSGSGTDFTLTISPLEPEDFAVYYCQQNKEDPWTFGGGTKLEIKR", 9.85],
  ["mAb2 (antibody, human IgG1, kappa, V domains shown, also called antiCD38_C2-CD38-1_VH1-VL1; CD38VH1) VH: QVQLVQSGAEVVKPGASVKVSCKASGYTFTSYAMHWVKEAPGQRLEWIGYIYPGQGGTNYNQKFQGRATLTADTSASTAYMELSSLRSEDTAVYFCARTGGLRRAYFTYWGQGTLVTVSS VL: DIVLTQSPATLSLSPGERATISCRASQSVSSYGQGFMHWYQQKPGQPPRLLIYGASSRATGIPARFSGSGSGTDFTLTISPLEPEDFAVYYCQQNKEDPWTFGGGTKLEIKR", 10.00]
]}

Tell me the measured pEC50 of mAb3 (antibody, human IgG1, kappa, V domains shown, also called antiCD38_C2-CD38-1_VH3-VL3) VH: QVQLVQSGAEVVKPGASVKVSCKASGYTFTSFNMHWVKEAPGQRLEWIGYIYPGNGGTNYNQKFQGRATLTADTSASTAYMELSSLRSEDTAVYFCARTGGLRRAYFTYWGQGTLVTVSS VL: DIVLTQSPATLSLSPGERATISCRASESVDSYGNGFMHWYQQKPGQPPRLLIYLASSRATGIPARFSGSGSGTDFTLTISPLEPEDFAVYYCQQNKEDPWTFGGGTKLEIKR , please.
9.82
